Target: full-length p47 (human, UniProt Q9UNZ2)
Sequence (Q9UNZ2 whole entry): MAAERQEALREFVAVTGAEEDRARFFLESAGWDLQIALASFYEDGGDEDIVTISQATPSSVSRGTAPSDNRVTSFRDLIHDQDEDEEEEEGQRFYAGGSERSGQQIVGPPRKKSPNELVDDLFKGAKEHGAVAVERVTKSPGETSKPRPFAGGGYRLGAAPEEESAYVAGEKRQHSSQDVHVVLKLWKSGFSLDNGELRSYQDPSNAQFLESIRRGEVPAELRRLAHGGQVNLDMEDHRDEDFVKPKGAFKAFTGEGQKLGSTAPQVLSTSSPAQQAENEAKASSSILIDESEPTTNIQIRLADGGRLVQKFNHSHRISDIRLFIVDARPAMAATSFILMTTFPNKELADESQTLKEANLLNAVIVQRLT
Experiment: SPR; competition: as for p47-UBX but with full-length p47 on immobilised p97 (Figure S7)
Conditions: both partners purified
QUANTITY: binding result

scFv-B01 (scFv, V domains shown) VH: QVQLVESGGGLVQPGGSLRLSCAASGFNISSYYMHWVRQAPGKGLEWVASIYPSYSSTSYADSVKGRFTISADTSKNTAYLQMNSLRAEDTAVYYCARSSDYDRYWYWSYDAFDYWGQGTLVTVSS VL: DIQMTQSPSSLSASVGDRVTITCRASQSVGSALAWYQQKPGKAPKLLIYSASSLYSGVPSRFSGSRSGTDFTLTISSLQPEDFATYYCQQSWDLFTFGQGTKVEIK :: binds
